Tested on: Ebola virus-GFP
Test: microbe, parasite or virus in culture
Format: cell-based, Zaire ebolavirus
Details: Zaire ebolavirus, HeLa
RESULT TYPE: EC50 (µM)
Field: numeric (µM). Do not append units.

// query Fill in: EC50 of `CN(C(=O)Cc1sccc1F)c1nc2c(s1)CCCC2` is ___
// result 0.3

====

System: JEV
Assay: Dose-response EC50, JEV
Type: cell-based
Conditions: Japanese encephalitis virus
RESULT TYPE: pEC50
The value called pEC50 is obtained by taking minus log10 of the concentration in mol/L.

// query Fill in: pEC50 of CN(C(=O)Cc1sccc1F)c1nc2c(s1)CCCC2 [ML416] is ___
// result 5.72
